target: human CD3e (T-cell surface glycoprotein CD3 epsilon chain) (human, UniProt P07766 23-207); test: cell-based or functional assay
Assay Readout: EC50, luciferase of Jurkat-Luc-NFAT cells; antibody from supernatant (µg/mL)
The answer is to be given in µg/mL; state only the numeric part.

**Query** Query: EC50, luciferase of Jurkat-Luc-NFAT cells; antibody from supernatant; subject: 1B1-H4K1-IgG1-LALA (antibody, V domains shown, Humanized; human IgG1 with LALA mutations; also called H4K1 (humanized 1B1)) VH: QVQLVQSGAEVVKPGASVKLSCKASGYTFTSYWMHWVRQRHGQGLEWIGNIYPDSGTTNYGEKFKTRGTLTVDTSTSTAYMELSSLRSEDTAVYYCTRDTSGQYYFDYWGQGTLVTVSS VL: DIVMTQSPDSLAVSAGERATMNCKSSQSLLNSRTRKNYLAWYQHKPGQSPKLLIYWASTRESGVPDRFSGSGSGTDFTLTISSLQAEDVAVYYCVQSFSLRAFGGGTKVEIK
**Result** 2.4
